These measurements were taken from paper PMC6364417.

- System: 501Mel-GP cells (Dabrafenib-resistant)
- ASSAY TEXT: Kinase inhibitor library screening, PrestoBlue cell viability, 1 or 10 μM, 72 h
- MEASUREMENT PARAMETERS: 501Mel GP; 1μΜ; 72 h; in %
Rule for this label: Y means Cell viability in kinase inhibitor library screening, 501Mel GP, 1μΜ is less than 70; N means Cell viability in kinase inhibitor library screening, 501Mel GP, 1μΜ is at least 70.

Worked set:
COMPOUND | LABEL CLASS
COc1ccc(-c2ccc3ncc4c(c3c2)n(-c2ccc(N3CCNCC3)c(C(F)(F)F)c2)c(=O)n4C)cn1 | Y
COc1ccc(COc2cc3oc(=O)c4cc(C(C)O)ccc4c3cc2OC)cc1 (centres unmarked) | N
COCCOc1ccc2c(c1)ncn2-c1ccc2cccc(N3CCC(N)CC3)c2n1 | N
COc1ccc(-c2ccc3c(N4CCOC[C@@H]4C)nc(N4CCOC[C@@H]4C)nc3n2)cc1CO | Y
Nc1ccc(-c2ccc3ncc4ccc(=O)n(-c5cccc(C(F)(F)F)c5)c4c3c2)cn1 | Y
CC(C)n1nc(-c2ccc3oc(N)nc3c2)c2c(N)ncnc21 | Y
COc1ccc(-c2ccc3c(N4CCOCC4)nc(N4C[C@@H](C)O[C@@H](C)C4)nc3n2)cc1CO | Y
CC1(COc2ccc3c(c2)ncn3-c2ccc3cccc(N4CCC(N)CC4)c3n2)COC1 | N

// query Lab note: confirm whether the reported Cell viability in kinase inhibitor library screening, 501Mel GP, 1μΜ for this compound is below 70, equality not counting. compound: `C[C@@H](Oc1cc(-n2cnc3ccc(CN4CCN(C)CC4)cc32)sc1C(N)=O)c1ccccc1C(F)(F)F`
// result Y

// query Lab note: confirm whether the reported Cell viability in kinase inhibitor library screening, 501Mel GP, 1μΜ for this compound is below 70, equality not counting. compound: `Cc1ccc(F)c(NC(=O)Nc2ccc(-c3cccc4[nH]nc(N)c34)cc2)c1`
// result N

// query Lab note: confirm whether the reported Cell viability in kinase inhibitor library screening, 501Mel GP, 1μΜ for this compound is below 70, equality not counting. compound: `OCCn1cc(-c2ccc3c(c2)CC/C3=N\O)c(-c2ccncc2)n1`
// result N

// query Lab note: confirm whether the reported Cell viability in kinase inhibitor library screening, 501Mel GP, 1μΜ for this compound is below 70, equality not counting. compound: `O=C(Nc1cccc(Nc2ncc(Br)c(NCCc3cnc[nH]3)n2)c1)N1CCCC1`
// result N

// query Lab note: confirm whether the reported Cell viability in kinase inhibitor library screening, 501Mel GP, 1μΜ for this compound is below 70, equality not counting. compound: `Nc1cc(C(F)(F)F)c(-c2cc(N3CCOCC3)nc(N3CCOCC3)n2)cn1`
// result Y

// query Lab note: confirm whether the reported Cell viability in kinase inhibitor library screening, 501Mel GP, 1μΜ for this compound is below 70, equality not counting. compound: `COc1cccc2cc(-c3nc([C@H]4CC[C@H](C(=O)O)CC4)n4ncnc(N)c34)[nH]c12`
// result Y

// query Lab note: confirm whether the reported Cell viability in kinase inhibitor library screening, 501Mel GP, 1μΜ for this compound is below 70, equality not counting. compound: `CN(C)C1CCN(C(=O)c2ccc(NC(=O)Nc3ccc(-c4nc(N5CCOCC5)nc(N5CCOCC5)n4)cc3)cc2)CC1`
// result Y

// query Lab note: confirm whether the reported Cell viability in kinase inhibitor library screening, 501Mel GP, 1μΜ for this compound is below 70, equality not counting. compound: `CCC(=O)N1CCN(c2ccc(-n3c(=O)ccc4cnc5ccc(-c6cnc7ccccc7c6)cc5c43)cc2C(F)(F)F)CC1`
// result Y

// query Lab note: confirm whether the reported Cell viability in kinase inhibitor library screening, 501Mel GP, 1μΜ for this compound is below 70, equality not counting. compound: `COc1cc(OC)c(/C=C/S(=O)(=O)Cc2ccc(OC)c(NCC(=O)O)c2)c(OC)c1`
// result Y

// query Lab note: confirm whether the reported Cell viability in kinase inhibitor library screening, 501Mel GP, 1μΜ for this compound is below 70, equality not counting. compound: `COC(=O)Nc1ccc(-c2nc(N3CCOCC3)c3cnn(C4CCN(Cc5cccnc5)CC4)c3n2)cc1`
// result Y

// query Lab note: confirm whether the reported Cell viability in kinase inhibitor library screening, 501Mel GP, 1μΜ for this compound is below 70, equality not counting. compound: `O=C1NC(=O)/C(=C/c2ccc(-c3ccc(F)cc3O)o2)S1`
// result N

// query Lab note: confirm whether the reported Cell viability in kinase inhibitor library screening, 501Mel GP, 1μΜ for this compound is below 70, equality not counting. compound: `Oc1ccc(-c2nc(-c3ccncc3)c(-c3ccc(F)cc3)[nH]2)cc1`
// result N

// query Lab note: confirm whether the reported Cell viability in kinase inhibitor library screening, 501Mel GP, 1μΜ for this compound is below 70, equality not counting. compound: `c1cncc(CN2CCC(n3ncc4c(N5CCOCC5)nc(-c5ccc6[nH]ccc6c5)nc43)CC2)c1`
// result N

// query Lab note: confirm whether the reported Cell viability in kinase inhibitor library screening, 501Mel GP, 1μΜ for this compound is below 70, equality not counting. compound: `COc1ccc2c(c1OC)N=C(NC(=O)c1cccnc1)N1CCN=C21`
// result N

// query Lab note: confirm whether the reported Cell viability in kinase inhibitor library screening, 501Mel GP, 1μΜ for this compound is below 70, equality not counting. compound: `CCCS(=O)(=O)Nc1ccc(F)c(C(=O)c2c[nH]c3ncc(-c4ccc(Cl)cc4)cc23)c1F`
// result N

// query Lab note: confirm whether the reported Cell viability in kinase inhibitor library screening, 501Mel GP, 1μΜ for this compound is below 70, equality not counting. compound: O=c1c(O)c(-c2ccc(O)c(O)c2)oc2cc(O)cc(O)c12 [Quercetin (Sophoretin)]
// result N

// query Lab note: confirm whether the reported Cell viability in kinase inhibitor library screening, 501Mel GP, 1μΜ for this compound is below 70, equality not counting. compound: `O=c1cc(N2CCOCC2)oc2c(-c3ccccc3)cccc12`
// result N

// query Lab note: confirm whether the reported Cell viability in kinase inhibitor library screening, 501Mel GP, 1μΜ for this compound is below 70, equality not counting. compound: `Nc1nc(N)c2nc(-c3cccc(O)c3)c(-c3cccc(O)c3)nc2n1`
// result N

// query Lab note: confirm whether the reported Cell viability in kinase inhibitor library screening, 501Mel GP, 1μΜ for this compound is below 70, equality not counting. compound: CO[C@H]1C[C@@H]2CC[C@@H](C)[C@@](O)(O2)C(=O)C(=O)N2CCCC[C@H]2C(=O)O[C@H]([C@H](C)C[C@@H]2CC[C@@H](OP(C)(C)=O)[C@H](OC)C2)CC(=O)[C@H](C)/C=C(\C)[C@@H](O)[C@@H](OC)C(=O)[C@H](C)C[C@H](C)/C=C/C=C/C=C/1C [Deforolimus (Ridaforolimus)]
// result Y

// query Lab note: confirm whether the reported Cell viability in kinase inhibitor library screening, 501Mel GP, 1μΜ for this compound is below 70, equality not counting. compound: `CCCS(=O)(=O)Nc1ccc(F)c(C(=O)c2c[nH]c3ncc(Cl)cc23)c1F`
// result N

---

Consider the following molecules and their measured cell viability (kinase inhibitor library screening) readings.
- Tested on: IGR37-XP cells (Vemurafenib-resistant)
- ASSAY TEXT: Kinase inhibitor library screening, PrestoBlue cell viability, 1 or 10 μM, 72 h
- MEASUREMENT PARAMETERS: IGR37 XP, 1μΜ; in %
- Method: After 72 h of treatment, cell viability was assessed using the PrestoBlue Cell Viability Reagent (ThermoFisher Scientific). Measurements were performed with the CLARIOstar Monochromator microplate reader (BMG Labtech). Kinase inhibitor library screening. […] Drugs were added at 2 different concentrations, 1 and 10 μM, for 72 h and cell viability was assessed using the PrestoBlue Cell Viability assay. […] Each cell line was analyzed at least in duplicate. […]

Here is how some molecules turned out for cell viability (kinase inhibitor library screening).
MOLECULE | MEASUREMENT TARGET | RESULT
Cc1cc2c(F)c(Oc3ncnn4cc(OC[C@@H](C)OC(=O)[C@H](C)N)c(C)c34)ccc2[nH]1 [Brivanib alaninate (BMS-582664)] | IGR37-XP cells (Vemurafenib-resistant) | 99.9
COc1cc2nccc(Oc3ccc(NC(=O)NC4CC4)c(Cl)c3)c2cc1C(N)=O | IGR37-XP cells (Vemurafenib-resistant) | 97.7
Cc1nc(Nc2ncc(C(=O)Nc3c(C)cccc3Cl)s2)cc(N2CCN(CCO)CC2)n1 | IGR37-XP cells (Vemurafenib-resistant) | 88.2
COc1cc(Nc2ncc(F)c(Nc3ccc4c(n3)NC(=O)C(C)(C)O4)n2)cc(OC)c1OC.O=S(=O)(O)c1ccccc1 | IGR37-XP cells (Vemurafenib-resistant) | 89.4

response.value for O=C(Cc1ccc(-c2ccc(OCCN3CCOCC3)cc2)cn1)NCc1ccccc1 [KX2-391, reference compound] (field: cell viability (kinase inhibitor library screening)) = 45.0

response.value for C[C@@H](N)[C@H]1CC[C@H](C(=O)Nc2ccncc2)CC1.Cl.Cl [Y-27632 2HCl] (field: cell viability (kinase inhibitor library screening)) = 97.8

response.value for `O=C(NCc1ccccc1)c1csc(Nc2ccncn2)n1` (field: cell viability (kinase inhibitor library screening)) = 98.5

response.value for `Cc1ccc(NC(=O)c2cccc(N(C)C)c2)cc1NC(=O)c1ccc(O)cc1` (field: cell viability (kinase inhibitor library screening)) = 108.8
